Attribution: patent US20240270821A1

Measured pEC50, listed per entry.
# tested-system: hGLP-1R (Homo sapiens, UniProt P43220)
# Sequence (P43220 24-463): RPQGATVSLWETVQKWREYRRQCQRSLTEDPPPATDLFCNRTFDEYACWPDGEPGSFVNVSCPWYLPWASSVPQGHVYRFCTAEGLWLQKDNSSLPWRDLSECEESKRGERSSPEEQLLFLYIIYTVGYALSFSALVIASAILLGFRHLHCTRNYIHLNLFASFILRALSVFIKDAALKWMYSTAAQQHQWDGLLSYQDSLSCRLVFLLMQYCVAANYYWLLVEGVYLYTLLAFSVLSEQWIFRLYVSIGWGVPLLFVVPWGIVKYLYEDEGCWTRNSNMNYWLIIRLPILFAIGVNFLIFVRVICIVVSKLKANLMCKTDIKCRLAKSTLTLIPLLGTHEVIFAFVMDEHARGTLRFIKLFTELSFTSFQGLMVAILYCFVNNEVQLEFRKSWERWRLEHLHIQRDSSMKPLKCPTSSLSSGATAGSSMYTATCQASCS
# procedure-text: Functional cAMP activity in the presence of 1% HSA
# Format: cell-based
# reported-conditions: read-out: cAMP Rel EC50, hGLP-1R
pEC50: −log10 of the molar value. Starred links: 1 amine or outer side, 2 acyl side, 3 side chain; linkers in the order of their positions; H or OH if unused. Non-standard residues stand in square brackets, D forms with d. Groups on a side chain read outwards from the residue. No end group written: not given here. *: point of attachment. C18 diacid = O=C(O)CCCCCCCCCCCCCCCCC(=O)*; αMePhe(2-F) = C[C@](N)(Cc1ccccc1F)C(=O)O; γGlu = O=C(O)[C@H](CCC(=O)[*:2])N[*:1]; αMe4Pal = C[C@](N)(Cc1ccncc1)C(=O)O; αMeY = C[C@](N)(Cc1ccc(O)cc1)C(=O)O; 4Pal = N[C@@H](Cc1ccncc1)C(=O)O; αMeL = CC(C)C[C@](C)(N)C(=O)O; αMeS = C[C@](N)(CO)C(=O)O; Orn = NCCC[C@H](N)C(=O)O; AEEA = NCCOCCOCC(=O)O; Aib = CC(C)(N)C(=O)O
measured-attribute: pEC50

[[record]]
substance = "Y[Aib]QGT[αMePhe(2-F)]TSD[4Pal][αMeS]I[αMeL]LE[Orn]K([AEEA-γGlu-C18 diacid])AQ[αMe4Pal]EFI[dE][αMeY]LVEGGPSSGAPPPSGS-NH2 [Example 768]"
readout_number = 7.48

[[record]]
substance = "H-Y[Aib]QGTFTSDFS[Orn][αMeL]LDKK([AEEA-AEEA-γGlu-C18 diacid])AQ[Aib]AFIEYLLEGGPSSGAPPPGES-NH2 [Example 118]"
readout_number = 5.84

[[record]]
substance = "H-Y[Aib]QGT[αMePhe(2-F)]TSD[4Pal]SI[αMeL]LD[Orn]K([AEEA-γGlu-C18 diacid])AQ[αMe4Pal][Orn]FI[dE][αMeY]LIEGGPSSGEPPPETE-NH2 [Example 678]"
readout_number = 7.66

